All values here come from patent US10758609B2.

System: CD8^+ T cells from HIV^+ subjects
ASSAY_TEXT: FACS-based intracellular staining (ICS) for cytolysin (perforin) and cytotoxins (GrzA, GrzB) in CD8+ T cells
ASSAY_CONDITIONS: FIV epitope peptide; HIV+ human subjects
Residues, ends and D or L forms follow the SMILES beside them.
EXPERIMENTAL_READOUT: Cyto: CD8+ T-cell cytotoxins (perforin, GrzA & B), frequency of responders

COMPOUND	READOUT_VALUE
CC(C)C[C@H](NC(=O)[C@H](Cc1ccc(O)cc1)NC(=O)[C@H](CC(C)C)NC(=O)[C@H](CCCCN)NC(=O)[C@@H](NC(=O)[C@H](CCC(=O)O)NC(=O)[C@H](C)NC(=O)[C@@H](NC(=O)[C@H](CC(N)=O)NC(=O)[C@H](CCC(N)=O)NC(=O)[C@H](CCC(=O)O)NC(=O)[C@H](CCC(N)=O)NC(=O)[C@@H](N)CC(=O)O)[C@@H](C)O)C(C)C)C(=O)N[C@@H](CCCCN)C(=O)O [Fp14-1] (H-DQEQNTAEVKLYLK-OH)	+++ (41%-54% (+++))
CC(C)C[C@H](NC(=O)[C@@H](NC(=O)[C@H](Cc1c[nH]c2ccccc12)NC(=O)CNC(=O)[C@H](CCC(N)=O)NC(=O)[C@@H]1CCCN1C(=O)[C@H](CC(C)C)NC(=O)[C@H](CO)NC(=O)[C@H](CS)NC(=O)[C@H](Cc1c[nH]c2ccccc12)NC(=O)[C@@H](NC(=O)[C@H](Cc1ccc(O)cc1)NC(=O)[C@H](CCCNC(=N)N)NC(=O)[C@H](CCCNC(=N)N)NC(=O)CN)C(C)C)C(C)C)C(=O)O [FRT7-1] (H-GRRYVWCSLPQGWVL-OH)	+++ (41%-54% (+++))

====

Test system: CD4^+ T cells from HIV^+ subjects
ASSAY_CONDITIONS: HIV-1 epitope peptide; HIV+ human subjects; threshold ≥0.2%
Residues, ends and D or L forms follow the SMILES beside them.
EXPERIMENTAL_READOUT: CyCD4: CD4+ T-cell cytolysin/cytotoxins (perforin, GrzA & B), frequency of responders

COMPOUND	TARGET_OF_ASSAY	READOUT_VALUE
CC[C@H](C)[C@H](NC(=O)CNC(=O)[C@H](CC(C)C)NC(=O)[C@H](CC(C)C)NC(=O)[C@H](CCC(N)=O)NC(=O)[C@H](CCC(N)=O)NC(=O)[C@H](CC(=O)O)NC(=O)[C@H](CCCCN)NC(=O)[C@H](CC(C)C)NC(=O)[C@@H](N)Cc1ccc(O)cc1)C(=O)N[C@@H](Cc1c[nH]c2ccccc12)C(=O)NCC(=O)N[C@@H](CS)C(=O)O [HTM4-3] (H-YLKDQQLLGIWGC-OH; N-terminus and C-terminus assumed)	CD4^+ T cells from HIV^+ subjects	− (0%-1.4% (−))
CC[C@H](C)[C@H](NC(=O)[C@H](CCCNC(=N)N)NC(=O)[C@@H](N)CC(C)C)C(=O)N[C@H](C(=O)N[C@@H](Cc1ccccc1)C(=O)N[C@@H](C)C(=O)N[C@H](C(=O)N[C@@H](CC(C)C)C(=O)N[C@@H](CO)C(=O)N[C@H](C(=O)N[C@H](C(=O)N[C@@H](CC(N)=O)C(=O)N[C@@H](CCCNC(=N)N)C(=O)N[C@H](C(=O)N[C@@H](CCCNC(=N)N)C(=O)N[C@@H](CCC(N)=O)C(=O)O)C(C)C)C(C)C)[C@@H](C)CC)C(C)C)C(C)C [HTM8(20)] (H-LRIVFAVLSIVNRVRQ-OH; N-terminus and C-terminus assumed)	CD4^+ T cells from HIV^+ subjects	− (0%-1.4% (−))

====

System: FIVFC1
ASSAY_TEXT: FIV enhancement and suppression (E/S) analysis of in vitro FIV infection of feline PBMC
Type: cell-based, feline immunodeficiency virus
ASSAY_CONDITIONS: FIV peptides; in vitro FIV infection of uninfected cat PBMC
EXPERIMENTAL_READOUT: FIV Test E/S (enhancer/suppressor analysis)

Worked examples, 4 sequences total:
SEQUENCE_CODE	TARGET_OF_ASSAY	READOUT_VALUE
KKKSGKWRMLIDFRV [FRT3-3]	FIVFC1	↑
WRMLIDFRVLNKL [FRT3-4]	FIVFC1	↓
RAWYLEALGKLAAIKAK [Fp10-2/3, overlapping peptide of MAP6]	FIVFC1	↓
PTDMATLIMAAPGCA [Fp4-3]	FIVFC1	↑

response.value for KKKSGKWRLIDFRVLNKL [FRT3-3/4] (field: FIV Test E/S (enhancer/suppressor analysis)) = ↓

====

Test system: CD8^+ T cells from HIV^+ subjects
ASSAY_TEXT: FACS-based intracellular staining (ICS) for cytolysin (perforin) and cytotoxins (GrzA, GrzB) in CD8+ T cells
ASSAY_CONDITIONS: FIV peptides; HIV+ human subjects
Residues, ends and D or L forms follow the SMILES beside them.
EXPERIMENTAL_READOUT: Cyto (cytolysin/cytotoxin production), frequency of responders

Worked examples, 4 molecules total:
MOLECULE	READOUT_VALUE
CSCC[C@H](NC(=O)[C@H](CCCNC(=N)N)NC(=O)[C@H](C)NC(=O)[C@@H]1CCCN1C(=O)[C@H](C)NC(=O)[C@@H](N)Cc1ccccc1)C(=O)N[C@@H](CCC(N)=O)C(=O)N[C@@H](CS)C(=O)N[C@@H](CCCNC(=N)N)C(=O)N[C@@H](C)C(=O)N[C@@H](Cc1c[nH]c2ccccc12)C(=O)N[C@@H](Cc1ccc(O)cc1)C(=O)N[C@@H](CC(C)C)C(=O)N[C@@H](CCC(=O)O)C(=O)N[C@@H](C)C(=O)O [Fp9-3] (H-FAPARMQCRAWYLEA-OH)	+++ (40.1%-54% (+++))
CC[C@H](C)[C@H](NC(=O)[C@H](CO)NC(=O)[C@H](CC(C)C)NC(=O)[C@H](CO)NC(=O)[C@H](CCC(N)=O)NC(=O)[C@H](CCCCN)NC(=O)[C@H](CC(C)C)NC(=O)[C@H](Cc1ccc(O)cc1)NC(=O)[C@H](CC(C)C)NC(=O)[C@@H](N)CCCCN)C(=O)N[C@@H](C)C(=O)N[C@@H](CC(N)=O)C(=O)N[C@@H](C)C(=O)O [Fp14-4] (H-KLYLKQSLSIANA-OH; N-terminus and C-terminus assumed)	++++ (>54% (++++))
CC(C)C[C@H](NC(=O)[C@@H](NC(=O)[C@H](Cc1c[nH]c2ccccc12)NC(=O)CNC(=O)[C@H](CCC(N)=O)NC(=O)[C@@H]1CCCN1C(=O)[C@H](CC(C)C)NC(=O)[C@H](CO)NC(=O)[C@H](CS)NC(=O)[C@H](Cc1c[nH]c2ccccc12)NC(=O)[C@@H](NC(=O)[C@H](Cc1ccc(O)cc1)NC(=O)[C@H](CCCNC(=N)N)NC(=O)[C@H](CCCNC(=N)N)NC(=O)CN)C(C)C)C(C)C)C(=O)O [FRT7-1] (H-GRRYVWCSLPQGWVL-OH)	+++ (40.1%-54% (+++))
CC[C@H](C)[C@H](NC(=O)[C@H](CO)NC(=O)[C@H](CC(C)C)NC(=O)[C@H](CO)NC(=O)[C@H](CCC(N)=O)NC(=O)[C@H](CCCCN)NC(=O)[C@H](CC(C)C)NC(=O)[C@H](Cc1ccc(O)cc1)NC(=O)[C@H](CC(C)C)NC(=O)[C@H](CCCCN)NC(=O)[C@@H](NC(=O)[C@H](CCC(=O)O)NC(=O)[C@H](C)N)C(C)C)C(=O)N[C@@H](C)C(=O)O [Fp14-3] (H-AEVKLYLKQSLSIA-OH; N-terminus and C-terminus assumed)	++++ (>54% (++++))

Now, please, on to the next molecule.
response.value for CC(C)C[C@H](NC(=O)[C@H](Cc1ccc(O)cc1)NC(=O)[C@H](CC(C)C)NC(=O)[C@H](CCCCN)NC(=O)[C@@H](NC(=O)[C@H](CCC(=O)O)NC(=O)[C@H](C)NC(=O)[C@@H](NC(=O)[C@H](CC(N)=O)NC(=O)[C@H](CCC(N)=O)NC(=O)[C@H](CCC(=O)O)NC(=O)[C@H](CCC(N)=O)NC(=O)[C@@H](N)CC(=O)O)[C@@H](C)O)C(C)C)C(=O)N[C@@H](CCCCN)C(=O)O [Fp14-1] (H-DQEQNTAEVKLYLK-OH) (field: Cyto (cytolysin/cytotoxin production), frequency of responders) = +++ (40.1%-54% (+++))

====

Tested on: CD3^+CD8^+ T cells from HIV^+ subjects
ASSAY_TEXT: CFSE-based CD3+CD8+ T-cell proliferation, HIV+ human subjects
ASSAY_CONDITIONS: FIV epitope peptide
EXPERIMENTAL_READOUT: CD8, frequency of responders

Worked examples, 4 sequences total:
SEQUENCE_CODE	CD8, frequency of responders
KFLYTAFAMQELR [FTM4-3]	— (0%-1.4% (—))
LLLILCLPTLVDCIRN [FTM8(20)]	++++ (>54% (++++))
KKKSGKWRMLIDFRV [FRT3-3]	++++ (>54% (++++))
PTDMATLIMAAPGCA [Fp4-3]	— (0%-1.4% (—))

Now, please, on to the next sequence.
response.value for AGLRQSLEQYQVVKQ [FSU4] (field: CD8, frequency of responders) = — (0%-1.4% (—))
